system: MOLP-8; assay: In vitro cell viability assay (CellTiter-Glo, ATP levels), multiple myeloma cells; type: cell-based; settings: Homo sapiens, MOLP-8, 168 h, 7-day incubation, CellTiter-Glo, average values; read-out: MOLP-8 IC50
Label key: label 1 means IC50 under 400 nM; label 0 means IC50 of 400 nM or more.

INSERT INTO measurements (compound, class_name) VALUES
  ('O=C1C=CCCN1C(=O)/C=C/c1ncc2ccccc2n1 [Compound 48]', 'label 1');

Problem: For the compound O=C1C=CCCN1C(=O)/C=C/C1CCN(c2ncccn2)CC1 [Compound 67] , is IC50 under 400 nM?
label 0

Problem: For the compound O=C(Nc1ccc(F)cc1)N1CCC(/C=C/C(=O)N2CCC=CC2=O)CC1 [Compound 58] , is IC50 under 400 nM?
label 1

Problem: For the compound Cn1cc(/C=C/S(=O)(=O)N2CCC=CC2=O)cn1 [Compound 75] , is IC50 under 400 nM?
label 0

Problem: For the compound O=C1C=CCCN1C(=O)/C=C/C1CCNCC1 [Compound 20] , is IC50 under 400 nM?
label 0

Problem: For the compound O=C1C=CCCCN1C(=O)/C=C/C1CCNCC1 [Compound 38] , is IC50 under 400 nM?
label 1

Problem: For the compound Cn1cc(/C=C/C(=O)N2CCC=CC2=O)c2ccccc21 [Compound 52] , is IC50 under 400 nM?
label 0

* * *

tested on: HCT116 (colorectal cancer) cells; experiment: Resazurin-based cell viability assay using colorectal cancer cells; details: Homo sapiens, HCT-116, 72 hr incubation
metric.name: pIC50
Note on pIC50: it is the negative log10 of concentration, concentration in mol/L.

INSERT INTO measurements (molecule, reported_measurement) VALUES
  ('O=C1C=CCCN1C(=O)/C=C/c1ccc2c(n1)OCCO2', 5.50);

Consider the molecule O=C1C=CCCCN1C(=O)/C=C/c1cccnc1 and give its measured pIC50.
5.72

Consider the molecule C/C(=C/C1CCNCC1)C(=O)N1CCC=CC1=O [Compound 87, 2,2,2-trifluoroacetate] and give its measured pIC50.
5.00

* * *

tested on: MOLP-8; experiment: In vitro cell viability assay (CellTiter-Glo, ATP levels), multiple myeloma cells; type: cell-based; details: Homo sapiens, MOLP-8, 168 h, 7-day incubation, CellTiter-Glo, average values; read-out: MOLP-8 IC50
# log10 IC50 annotations
Scale: log10; quantity: IC50; unit before log: µM

A selection of reference data follows.
INSERT INTO results (compound, metric_name, reported_measurement) VALUES
  ('Cn1cc(/C=C/C(=O)N2CCC=CC2=O)cn1', 'log10 IC50', -0.22),
  ('Cc1n[nH]c(C)c1/C=C/C(=O)N1CCC=CC1=O', 'log10 IC50', 0.17),
  ('O=C1C=CCCCN1C(=O)/C=C/c1ccc2c(n1)OCCO2', 'log10 IC50', -0.57),
  ('Cn1ccc(/C=C/C(=O)N2CCC=CC2=O)n1', 'log10 IC50', -0.25),
  ('CC(C)(C)OC(=O)N1CCC(/C=C(/C(=O)N2CCC=CC2=O)c2ccccc2)CC1', 'log10 IC50', 0.51);

// next entry
Consider the compound Cn1cc(/C=C/C(=O)N2CC(C)(C)C=CC2=O)cn1 and give its measured log10 IC50.
0.66

Data origin, for the record: patent US11485725B2
